From: paper PMC10695737

Test: Dynamic vapor sorption (DVS), water sorption as Δm
Format: physicochemical
Settings: 60 % RH, desorption cycle 2 (D2), 25 °C
Entries annotated with measured Water sorption Δm
Report the value in % with no unit label.

Task: For the molecule NC(CO)(CO)CO.O=c1c2nc(Br)n([C@@H]3O[C@@H]4CO[P@@](O)(=S)O[C@H]4[C@H]3O)c2nc2[nH]c(-c3ccccc3)cn12 [cGMPSA‐Tris] , what Water sorption Δm is on record?
Output: 6.8

Task: Form field: reported Water sorption Δm of O=c1c2nc(Br)n(C3OC4COP(O)(=S)OC4C3O)c2nc2[nH]c(-c3ccccc3)cn12 (stereo not shown) [cGMPSA‐TEA]
Output: 4.8

Task: Which measured Water sorption Δm value corresponds to O=c1c2nc(Br)n([C@@H]3O[C@@H]4COP(=O)(S)O[C@H]4[C@H]3O)c2nc2[nH]c(-c3ccccc3)cn12 (stereo partly shown) [cGMPSA‐H] ?
Output: 6.7

Task: Param item = O=c1c2nc(Br)n([C@@H]3O[C@@H]4CO[P@@](O)(=S)O[C@H]4[C@H]3O)c2nc2[nH]c(-c3ccccc3)cn12.c1ccc(CCNCc2ccccc2)cc1 [cGMPSA‐Bnet] ; retrieve measured Water sorption Δm.
Output: 6.1

***
Task: Recorded Water sorption Δm for O=c1c2nc(Br)n([C@@H]3O[C@@H]4COP(=O)([S-])O[C@H]4[C@H]3O)c2nc2[nH]c(-c3ccccc3)cn12.[Na+] (stereo partly shown) [cGMPSA‐Na] , please?
Output: 12.5

Task: Please report the recorded Water sorption Δm for O=c1c2nc(Br)n([C@@H]3O[C@@H]4COP(=O)([S-])O[C@H]4[C@H]3O)c2nc2[nH]c(-c3ccccc3)cn12.O=c1c2nc(Br)n([C@@H]3O[C@@H]4COP(=O)([S-])O[C@H]4[C@H]3O)c2nc2[nH]c(-c3ccccc3)cn12.[Ca+2] (stereo partly shown) [cGMPSA‐Ca] .
Output: 15.5

Task: Item O=c1c2nc(Br)n([C@@H]3O[C@@H]4CO[P@@](O)(=S)O[C@H]4[C@H]3O)c2nc2[nH]c(-c3ccccc3)cn12.O=c1c2nc(Br)n([C@@H]3O[C@@H]4CO[P@@](O)(=S)O[C@H]4[C@H]3O)c2nc2[nH]c(-c3ccccc3)cn12.c1ccc(CNCCNCc2ccccc2)cc1 [cGMPSA‐BZ] has what recorded Water sorption Δm?
Output: 3.9
